Target protein (sequence): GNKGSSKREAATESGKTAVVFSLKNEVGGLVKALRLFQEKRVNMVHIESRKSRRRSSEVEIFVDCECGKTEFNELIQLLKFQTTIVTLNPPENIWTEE
pKd: −log10 of the molar value.

>  <molecule>
N[C@@H](Cc1ccccc1)C(=O)O [L-Phe]

>  <pKd>
4.39

$$$$
